Heads up, these compounds all have log10(IC50) values measured for Serine protease 1 (Homo sapiens).
Quick note: numbers are log10 of IC50, with µM as the unit.

{"COMPOUND": "N=C(N)N1CCC[C@H](NC(=O)CN2CCC[C@H](NS(=O)(=O)Cc3ccccc3)C2=O)C1O (some centres not stated)", "log10(IC50)": 0.10}

Find log10(IC50) (Serine protease 1 (Homo sapiens)) for the entry N=C(N)N1CCC[C@H](NC(=O)CN2CCCC[C@@](N)(Cc3ccccc3)C2=O)C1O (some centres not stated)
-0.01

Lookup: log10(IC50) / Serine protease 1 (Homo sapiens) / N=C(N)N1CCC[C@H](NC(=O)CN2CCC[C@](N)(Cc3ccccc3)C2=O)C1O.O=C(O)C(F)(F)F (some centres not stated)
0.40

Form: Entry = N=C(N)N1CCC[C@H](NC(=O)CN2CCC[C@@](N)(Cc3ccccc3)C2=O)C1O.O=C(O)C(F)(F)F (some centres not stated) | System = Serine protease 1 (Homo sapiens) | log10(IC50) = ____
-0.86

Notebook: pull reported log10(IC50) for Serine protease 1 (Homo sapiens), entry N=C(N)N1CCC[C@H](NC(=O)CN2CCCC[C@](N)(Cc3ccccc3)C2=O)C1O.O=C(O)C(F)(F)F (some centres not stated)
0.40

State its log10(IC50) on Serine protease 1 (Homo sapiens): CS(=O)(=O)NC1(Cc2ccccc2)CCCN(CC(=O)N[C@H]2CCCN(C(=N)N)C2O)C1=O (some centres not stated)
Sequence (P07477 whole entry): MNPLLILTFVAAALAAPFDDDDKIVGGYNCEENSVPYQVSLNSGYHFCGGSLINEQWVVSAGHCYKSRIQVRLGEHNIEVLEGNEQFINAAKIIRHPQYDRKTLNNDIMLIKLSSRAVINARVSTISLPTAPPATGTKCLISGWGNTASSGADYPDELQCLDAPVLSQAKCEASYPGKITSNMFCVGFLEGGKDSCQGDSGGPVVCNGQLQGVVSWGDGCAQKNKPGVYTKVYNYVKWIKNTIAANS
-1.28

Entry N=C(N)N1CCC[C@H](NC(=O)CN2CCCC[C@H](NS(=O)(=O)Cc3ccccc3)C2=O)C1O (some centres not stated) , system Serine protease 1 (Homo sapiens): what log10(IC50) was measured?
-0.82
